Attribute: pEC50
Biological target: HEK cells stably transfected with tetracycline inducible hNR1 and hNR2A (Homo sapiens, UniProt Q05586+Q12879)
Construct: expressed in transfected cells; host or cells: HEK cells, stably transfected, tetracycline/doxycycline inducible
Sequence (Q12879 23-1464, other chains not shown): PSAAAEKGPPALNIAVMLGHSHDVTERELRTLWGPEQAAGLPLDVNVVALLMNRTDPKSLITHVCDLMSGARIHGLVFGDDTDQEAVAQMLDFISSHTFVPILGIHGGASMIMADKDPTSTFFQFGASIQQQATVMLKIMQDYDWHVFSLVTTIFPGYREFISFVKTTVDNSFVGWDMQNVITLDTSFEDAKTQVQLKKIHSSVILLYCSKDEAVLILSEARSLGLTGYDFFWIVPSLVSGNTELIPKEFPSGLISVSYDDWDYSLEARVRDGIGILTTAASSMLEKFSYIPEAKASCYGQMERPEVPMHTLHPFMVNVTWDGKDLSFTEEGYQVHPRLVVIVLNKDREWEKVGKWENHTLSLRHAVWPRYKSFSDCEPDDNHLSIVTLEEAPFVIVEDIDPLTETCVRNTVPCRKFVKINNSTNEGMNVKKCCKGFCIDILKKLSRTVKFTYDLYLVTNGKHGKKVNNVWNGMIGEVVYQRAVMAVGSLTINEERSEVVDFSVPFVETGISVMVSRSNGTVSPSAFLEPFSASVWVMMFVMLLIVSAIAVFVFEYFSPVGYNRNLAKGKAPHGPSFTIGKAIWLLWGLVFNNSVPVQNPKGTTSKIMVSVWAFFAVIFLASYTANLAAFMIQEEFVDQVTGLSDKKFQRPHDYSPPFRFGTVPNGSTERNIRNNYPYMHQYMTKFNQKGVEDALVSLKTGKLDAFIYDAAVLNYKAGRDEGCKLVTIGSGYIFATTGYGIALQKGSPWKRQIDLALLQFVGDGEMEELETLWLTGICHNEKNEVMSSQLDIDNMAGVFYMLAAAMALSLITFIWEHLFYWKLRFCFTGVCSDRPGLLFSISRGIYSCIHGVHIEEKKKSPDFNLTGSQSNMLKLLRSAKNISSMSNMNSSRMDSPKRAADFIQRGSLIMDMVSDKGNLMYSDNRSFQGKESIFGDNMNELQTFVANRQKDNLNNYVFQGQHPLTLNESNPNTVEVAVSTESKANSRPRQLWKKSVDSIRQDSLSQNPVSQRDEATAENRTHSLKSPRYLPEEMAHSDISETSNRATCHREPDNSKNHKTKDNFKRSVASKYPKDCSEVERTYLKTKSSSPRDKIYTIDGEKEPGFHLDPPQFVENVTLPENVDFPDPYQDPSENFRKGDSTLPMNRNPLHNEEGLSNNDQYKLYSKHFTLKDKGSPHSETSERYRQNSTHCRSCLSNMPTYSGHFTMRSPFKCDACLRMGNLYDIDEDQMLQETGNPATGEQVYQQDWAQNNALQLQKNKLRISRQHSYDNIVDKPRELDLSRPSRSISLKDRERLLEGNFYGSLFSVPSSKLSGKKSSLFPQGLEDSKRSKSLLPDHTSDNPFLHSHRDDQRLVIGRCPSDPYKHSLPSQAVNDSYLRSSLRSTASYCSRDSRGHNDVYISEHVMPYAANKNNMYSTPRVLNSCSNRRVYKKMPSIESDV
Experiment: Assay 1: Cell-Based Assay, cytosolic calcium response to positive allosteric modulators (with 30 μM glycine and 300 nM L-glutamate, EC30)
Settings: Table 2; cytosolic calcium response, with 30 μM glycine and 300 nM L-glutamate (EC30); — = no plateau was reached
// field semantics: pEC50 = negative decimal log of concentration (mol/L)

Cc1sc2nc(Cn3ncc4ccc(F)cc43)cc(=O)n2c1[C@@H]1C[C@H]1CO (relative stereo) | 5.72
CCN(Cc1cc(=O)n2c([C@@H]3C[C@H]3CO)c(C)sc2n1)c1ccccn1 (relative stereo) | 6.06

Let us move to another entry and its pEC50.
Recorded pEC50 (molecule CCN(Cc1cc(=O)n2c(C(C)O)c(C)sc2n1)c1ccc(F)cc1 (stereo not drawn) ): 6.26
